# TESTED_SYSTEM: αIIbβ3 integrin (Homo sapiens, UniProt P05106+P08514)
# Construct: Human Platelets: Platelet-enriched plasma was obtained commercially from a donor pool; from tissue; host or cells: human platelet-rich plasma from a commercial donor pool
# Sequence (P08514 32-887 limits assumed): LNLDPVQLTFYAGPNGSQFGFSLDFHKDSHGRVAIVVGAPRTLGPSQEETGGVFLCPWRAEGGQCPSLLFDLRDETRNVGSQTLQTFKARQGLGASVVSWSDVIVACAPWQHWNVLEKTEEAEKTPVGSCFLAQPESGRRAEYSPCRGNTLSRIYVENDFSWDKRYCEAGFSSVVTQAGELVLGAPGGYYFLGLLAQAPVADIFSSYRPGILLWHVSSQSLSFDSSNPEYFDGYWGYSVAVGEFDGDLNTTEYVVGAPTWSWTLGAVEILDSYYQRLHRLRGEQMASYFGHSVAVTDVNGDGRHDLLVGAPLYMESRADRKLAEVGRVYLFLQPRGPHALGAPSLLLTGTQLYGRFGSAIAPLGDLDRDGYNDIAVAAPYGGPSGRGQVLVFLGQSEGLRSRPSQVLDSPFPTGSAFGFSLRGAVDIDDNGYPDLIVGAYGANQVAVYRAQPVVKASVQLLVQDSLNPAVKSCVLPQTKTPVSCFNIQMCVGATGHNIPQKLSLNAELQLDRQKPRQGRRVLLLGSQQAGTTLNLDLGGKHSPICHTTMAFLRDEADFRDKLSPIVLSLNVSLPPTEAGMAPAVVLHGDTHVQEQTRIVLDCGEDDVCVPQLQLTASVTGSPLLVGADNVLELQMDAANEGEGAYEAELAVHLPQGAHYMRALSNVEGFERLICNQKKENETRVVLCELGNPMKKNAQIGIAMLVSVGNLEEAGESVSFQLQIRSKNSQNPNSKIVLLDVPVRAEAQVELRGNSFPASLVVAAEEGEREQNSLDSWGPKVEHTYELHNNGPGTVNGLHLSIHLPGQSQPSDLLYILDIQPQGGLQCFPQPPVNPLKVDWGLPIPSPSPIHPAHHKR
# Sequence (P08514 891-1039 partner limits assumed): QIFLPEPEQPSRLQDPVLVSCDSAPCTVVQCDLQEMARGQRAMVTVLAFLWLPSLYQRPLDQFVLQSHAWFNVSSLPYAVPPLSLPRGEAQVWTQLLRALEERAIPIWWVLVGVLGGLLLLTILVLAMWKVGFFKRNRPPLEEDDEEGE
# Sequence (P05106 27-788): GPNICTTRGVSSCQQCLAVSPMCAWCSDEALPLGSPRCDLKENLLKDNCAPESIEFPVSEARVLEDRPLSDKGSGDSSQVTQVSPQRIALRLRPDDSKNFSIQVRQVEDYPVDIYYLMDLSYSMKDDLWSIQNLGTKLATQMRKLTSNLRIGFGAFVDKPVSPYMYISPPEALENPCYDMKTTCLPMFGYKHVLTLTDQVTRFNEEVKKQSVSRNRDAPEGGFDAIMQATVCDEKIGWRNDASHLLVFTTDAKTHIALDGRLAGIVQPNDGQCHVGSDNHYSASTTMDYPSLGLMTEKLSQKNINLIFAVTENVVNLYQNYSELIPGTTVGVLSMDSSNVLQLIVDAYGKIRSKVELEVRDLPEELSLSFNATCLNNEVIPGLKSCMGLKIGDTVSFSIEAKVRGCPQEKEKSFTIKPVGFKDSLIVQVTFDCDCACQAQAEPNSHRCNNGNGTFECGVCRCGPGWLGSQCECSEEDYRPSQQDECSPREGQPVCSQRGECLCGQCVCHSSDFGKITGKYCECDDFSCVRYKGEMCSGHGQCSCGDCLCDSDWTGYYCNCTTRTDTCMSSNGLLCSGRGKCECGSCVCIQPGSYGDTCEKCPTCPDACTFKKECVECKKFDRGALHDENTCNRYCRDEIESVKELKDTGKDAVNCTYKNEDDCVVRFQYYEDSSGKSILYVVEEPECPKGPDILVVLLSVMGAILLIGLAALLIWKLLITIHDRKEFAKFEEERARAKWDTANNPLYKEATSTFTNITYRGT
# MEASUREMENT_PROTOCOL: ADP-Induced Platelet Aggregation
# Assay type: cell-based
# CONDITION: reference compounds, Table VI; ADP 20 uM, human platelets; read-out: IC50 (95% Confidence Interval)
Peptide text beside a SMILES is read from it.

MOLECULE: N=C(N)NCCC[C@H](N)C(=O)NCC(=O)N[C@@H](CC(=O)O)C(=O)N[C@@H](Cc1ccccc1)C(=O)O [RGDF, reference compound] (H-RGDF-OH; N-terminus and C-terminus assumed)
IC50 (µM): 97.6
